# assay.remarks: Plasma protein binding, equilibrium dialysis, rat plasma
# conditions.used: Sprague-Dawley, rat, 50% plasma (K2EDTA)
readout.kind: recovery at 5 h, 1 microM (%)
Lab book: enter the figure in %, no units written.

Short answer for CC(C)NCC(O)COc1cccc2ccccc12 (stereo not shown) [Propranolol, reference compound] : recovery at 5 h, 1 microM was 79

* * *

Below, each entry is listed alongside its reported Selectivity ELISA.
# measurement.target: integrin α4β7 (Homo sapiens, UniProt P13612+P26010)
# Sequence (P13612 34-977 limits assumed): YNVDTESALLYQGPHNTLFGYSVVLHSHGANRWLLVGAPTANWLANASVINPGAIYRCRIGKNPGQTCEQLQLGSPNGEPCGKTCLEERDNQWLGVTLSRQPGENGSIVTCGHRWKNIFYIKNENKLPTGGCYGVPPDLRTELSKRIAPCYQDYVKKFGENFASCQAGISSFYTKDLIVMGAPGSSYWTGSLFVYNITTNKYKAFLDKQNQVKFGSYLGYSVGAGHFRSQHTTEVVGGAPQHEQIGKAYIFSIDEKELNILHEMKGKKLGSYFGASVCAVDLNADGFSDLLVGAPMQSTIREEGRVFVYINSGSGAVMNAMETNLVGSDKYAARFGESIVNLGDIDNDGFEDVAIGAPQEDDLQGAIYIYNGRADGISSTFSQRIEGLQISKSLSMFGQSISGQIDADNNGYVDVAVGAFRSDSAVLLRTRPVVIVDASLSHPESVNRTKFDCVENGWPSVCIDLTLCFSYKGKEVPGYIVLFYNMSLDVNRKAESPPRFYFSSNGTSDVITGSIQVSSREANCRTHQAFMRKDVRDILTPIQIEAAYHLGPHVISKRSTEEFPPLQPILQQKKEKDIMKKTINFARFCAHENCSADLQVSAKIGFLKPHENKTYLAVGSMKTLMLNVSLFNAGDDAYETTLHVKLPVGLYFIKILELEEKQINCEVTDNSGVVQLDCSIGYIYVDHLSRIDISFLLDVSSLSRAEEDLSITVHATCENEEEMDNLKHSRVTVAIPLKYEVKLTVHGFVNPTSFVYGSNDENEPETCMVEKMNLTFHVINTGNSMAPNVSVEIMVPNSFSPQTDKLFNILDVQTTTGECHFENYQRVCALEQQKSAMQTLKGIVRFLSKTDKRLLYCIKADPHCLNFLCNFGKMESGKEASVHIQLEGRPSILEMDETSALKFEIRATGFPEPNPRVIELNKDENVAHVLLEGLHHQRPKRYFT
# Sequence (P26010 20-723 limits assumed): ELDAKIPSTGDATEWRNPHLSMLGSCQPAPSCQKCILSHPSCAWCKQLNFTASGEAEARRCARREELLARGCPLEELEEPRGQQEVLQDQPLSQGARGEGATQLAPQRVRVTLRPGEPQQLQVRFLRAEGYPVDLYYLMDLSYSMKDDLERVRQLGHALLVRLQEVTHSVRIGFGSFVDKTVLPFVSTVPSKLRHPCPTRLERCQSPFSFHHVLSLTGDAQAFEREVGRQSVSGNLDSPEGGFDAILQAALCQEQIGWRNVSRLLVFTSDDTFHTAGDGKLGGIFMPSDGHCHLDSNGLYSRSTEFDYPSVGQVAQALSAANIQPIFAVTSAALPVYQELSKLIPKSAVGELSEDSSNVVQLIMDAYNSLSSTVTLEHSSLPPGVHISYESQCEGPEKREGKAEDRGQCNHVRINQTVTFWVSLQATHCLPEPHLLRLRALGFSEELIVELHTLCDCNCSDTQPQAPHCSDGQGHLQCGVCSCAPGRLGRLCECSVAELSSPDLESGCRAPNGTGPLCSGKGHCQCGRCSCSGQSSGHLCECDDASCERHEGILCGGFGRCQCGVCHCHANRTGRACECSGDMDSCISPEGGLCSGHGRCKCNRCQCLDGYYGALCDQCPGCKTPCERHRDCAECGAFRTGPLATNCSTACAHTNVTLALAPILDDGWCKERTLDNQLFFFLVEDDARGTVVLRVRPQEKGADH
# assay.remarks: Integrin α4β7—MAdCAM-1 competition assay (ELISA)
# Format: binding
# conditions.used: ratio a4b1 ELISA IC50 / a4b7 ELISA IC50
Output spec: single numeric token, no unit.

Short answer for `Cc1cccc(C)c1-c1ccccc1C[C@@H]1NC(=O)[C@@H]2CCCN2[C@H](C(=O)NC(C)(C)C)[C@H](C)NC(=O)[C@H]([C@@H](C)O)NC(=O)[C@H](CC(=O)O)NC(=O)[C@H](CC(C)C)NC(=O)C[C@H](CCCCN)NC1=O` : Selectivity ELISA was 58.1

Short answer for `C[C@@H]1NC(=O)[C@H]([C@@H](C)O)NC(=O)[C@H](CC(=O)O)NC(=O)[C@H](CC(C)(C)C)NC(=O)[C@H]2CCCCN2C(=O)[C@H](Cc2ccc(O)cc2)NC(=O)[C@@H]2CCCN2[C@@H]1C(=O)NC(C)(C)C` : Selectivity ELISA was 8.2

Short answer for `CC(C)C[C@@H]1NC(=O)[C@@H](CCCCN)NC(=O)[C@H](Cc2ccc(O)cc2)NC(=O)[C@@H]2CCCN2[C@H](C(=O)NC(C)(C)C)[C@H](C)NC(=O)[C@H]([C@@H](C)O)N(C)C(=O)[C@H](CC(=O)O)NC1=O` : Selectivity ELISA was 11.4

Short answer for `CC(C)C[C@@H]1NC(=O)C2(CCCC2)NC(=O)[C@H](Cc2ccc(O)cc2)NC(=O)[C@@H]2CCCN2[C@H](C(=O)NC(C)(C)C)[C@H](C)NC(=O)[C@H]([C@@H](C)O)NC(=O)[C@H](CC(=O)O)NC1=O` : Selectivity ELISA was 4.2

* * *

Below, each entry is listed alongside its reported Selectivity ELISA.
# measurement.target: integrin α4β7 (Homo sapiens, UniProt P13612+P26010)
# assay.remarks: Integrin α4β7—MAdCAM-1 competition assay (ELISA)
# Assay type: binding
# conditions.used: ratio a4b1 ELISA IC50 / a4b7 ELISA IC50
Output spec: single numeric token, no unit.

These recorded examples may help you get a feel for the data.
[
  {
    "chemical.string": "CCC[C@@H]1NC(=O)[C@@H]2CCCN2[C@H](C(=O)NC(C)(C)C)[C@H](C)NC(=O)[C@H]([C@@H](C)O)NC(=O)[C@H](CC(=O)O)NC(=O)[C@H](CC(C)C)NC1=O",
    "Selectivity ELISA": 4.4
  },
  {
    "chemical.string": "CC(C)C[C@@H]1NC(=O)CN(C)C(=O)[C@H](Cc2csc(-c3ccccn3)n2)NC(=O)[C@@H]2CCCN2[C@H](C(=O)NC(C)(C)C)[C@H](C)NC(=O)[C@H]([C@@H](C)O)NC(=O)[C@H](CC(=O)O)NC1=O",
    "Selectivity ELISA": 15.2
  },
  {
    "chemical.string": "COc1cccc(-c2ccccc2C[C@@H]2NC(=O)[C@@H]3CCCN3[C@H](C(=O)NC(C)(C)C)[C@H](C)NC(=O)[C@H]([C@@H](C)O)NC(=O)[C@H](CC(=O)O)NC(=O)[C@H](CC(C)C)NC(=O)[C@H]3CCCCN3C2=O)c1",
    "Selectivity ELISA": 6.6
  }
]

// moving on: another record for Selectivity ELISA
Short answer for `CC(C)C[C@@H]1NC(=O)[C@H](CCc2ccccc2)NC(=O)[C@@H]2CCCN2[C@H](C(=O)NC(C)(C)C)[C@H](C)NC(=O)[C@H]([C@@H](C)O)NC(=O)[C@H](CC(=O)O)NC1=O` : Selectivity ELISA was 1.9
